- Test system: Staphylococcus aureus
- experiment: Antimicrobial activity against daptomycin-susceptible Staphylococcus aureus ATCC 29213 incubated anaerobically at 37 degC for 48 hrs by agar dilution method
- Format: functional
- measurementConditions: ATCC 29213, 48 h
# MIC annotations
Number only, in µg/mL; omit the unit.

Some compounds with known MIC results, for comparison:
CCCCCCOc1ccc(-c2csc(C(=O)N[C@@H](Cc3c[nH]c4ccccc34)C(=O)N[C@@H](CC(N)=O)C(=O)N[C@@H](CC(=O)O)C(=O)N[C@@H]3C(=O)NCC(=O)N[C@@H](CCCN)C(=O)NC(CC(=O)O)C(=O)N[C@H](C)C(=O)N[C@@H](CC(=O)O)C(=O)NCC(=O)N[C@H](CO)C(=O)N[C@@H]([C@@H](C)CC(=O)O)C(=O)N[C@@H](CC(=O)c4ccccc4N)C(=O)O[C@@H]3C)c2)cc1 (single isomer, unassigned) :: 0.5
C[C@H]1NC(=O)C(CC(=O)O)NC(=O)[C@H](CCCN)NC(=O)CNC(=O)[C@@H](NC(=O)[C@H](CC(=O)O)NC(=O)[C@H](CC(N)=O)NC(=O)[C@H](Cc2c[nH]c3ccccc23)NC(=O)CCCCCC2CCCCC2)[C@@H](C)OC(=O)[C@H](CC(=O)c2ccccc2N)NC(=O)[C@H]([C@@H](C)CC(=O)O)NC(=O)[C@@H](CO)NC(=O)CNC(=O)[C@H](CC(=O)O)NC1=O (single isomer, unassigned) :: 1

Recall and state the measured MIC for CCCCCCCc1ccc(C(=O)N[C@@H](Cc2c[nH]c3ccccc23)C(=O)N[C@@H](CC(N)=O)C(=O)N[C@@H](CC(=O)O)C(=O)N[C@@H]2C(=O)NCC(=O)N[C@@H](CCCN)C(=O)N[C@H](CC(=O)O)C(=O)N[C@H](C)C(=O)N[C@@H](CC(=O)O)C(=O)NCC(=O)N[C@H](CO)C(=O)N[C@@H]([C@@H](C)CC(=O)O)C(=O)N[C@@H](CC(=O)c3ccccc3N)C(=O)O[C@@H]2C)cc1 .
0.25
